Molecular target: HLA-A*0201 (human)
Test: competitive inhibition assay, purified HLA
Settings: remark: other sources report otherwise
measurement name: IC50
Answer format: number, then unit.

stdin: For the binder YLQLVFGIEV [MAGE2.157] , what IC50 is on record?
stdout: 50 nM

stdin: Input VMAGVGSPYV [Her2/neu.773]
stdout: 200 nM
